Taken from the array DNA melting data of Ke et al. (doi:10.1101/2024.01.08.574731).

# experimental.protocol: folding enthalpy; higher = less favourable; fluorescence melt of hairpins on a sequencing array, two-state fit
# condition.set: sodium 0.088 M
value.kind: folding enthalpy

Ask: Which folding enthalpy value is on record for GTAATCCGAAAGGAATAC (((.(((....))).))) ?
Reply: -26.2 kcal/mol

Ask: Which folding enthalpy value is on record for GTCATTCGAAAGAACGAC (((.(((....))).))) ?
Reply: -31 kcal/mol

Ask: Which folding enthalpy value is on record for GGCGACGAAAGTCCCGCC ((((((....)))..))) ?
Reply: -19.5 kcal/mol

Ask: Which folding enthalpy value is on record for GCCAAGGGAAACCCTAGC ((.(.((....)).).)) ?
Reply: -17.6 kcal/mol

Ask: Which folding enthalpy value is on record for CGTACGCGGAAACGCACG (((..(((....)))))) ?
Reply: -13.5 kcal/mol

Ask: Which folding enthalpy value is on record for GATCCTCGGAAGGATC ((((((....)))))) ?
Reply: -34.4 kcal/mol
